Data origin: patent US4771050A

Test system: sorbitol accumulation in sciatic nerves of streptozocin diabetic rats
Test: Inhibition of sorbitol accumulation in the tissue of experimentally induced diabetic rat
Format: in vivo, rat (Spraque-Dawley)
Conditions: 30 mg/kg orally twice a day for 2 days; sciatic nerve; untreated control group = 100
The threshold is inclusive: sorbitol accumulation of exactly 30% counts as Yes; values below receive No.

Req: Determine whether measured sorbitol accumulation meets or exceeds 30% for CC(C)C1Oc2c(C3CCCCC3)cccc2N(CC(=O)O)C1=S (centres unmarked) [Example 20]
Resp: No

Req: # check: sorbitol accumulation of CC(C)C1Oc2ccccc2N(CC(=O)O)C1=S (centres unmarked) [Example 1] is greater than or equal to 30%
Resp: Yes

Req: Threshold query (sorbitol accumulation >= 30%) on CC(C)C1Oc2cc(F)ccc2N(CC(=O)O)C1=S (centres unmarked) [Example 17]
Resp: Yes

Req: Say whether CC(C)C1Oc2c(cccc2C(C)(C)C)N(CC(=O)O)C1=S (centres unmarked) [Example 19] shows sorbitol accumulation of 30% or more.
Resp: No
